# Tested on: Enterobacter aerogenes ATCC 13048
# run-description: In vitro antibacterial activity, MIC by agar dilution
# Type: cell-based
# run-parameters: BHI agar, 35-37°C, 20-24 hours, unit assumed
Structures can show the parent of a compound that is named as a salt.
Reported log10(MIC values) values for a set of molecules
The base-10 logarithm of MIC values, taken with MIC values in µg/mL, is what appears here.

Example results:
C[C@H](N)C(=O)NC1CCN(c2nc3c(-c4ccc(F)cc4F)cc(C(=O)O)c(=O)n3cc2F)C1 (stereo partly shown) [Example 167, hydrochloride]	0.49
CCc1cc(C(=O)O)c(=O)n2ccc(N3CCNC(C)C3)cc12.Cl (stereo not shown) [Example 64]	0.79

Recorded result, CCC[C@H](N)C(=O)NC1CCN(c2nc3c(-c4ccc(F)cc4F)cc(C(=O)O)c(=O)n3cc2F)C1 (stereo partly shown) [Example 166, hydrochloride salt] , log10(MIC values): 0.49

Recorded log10(MIC values) (molecule NC1CCN(c2nc3c(-c4c(F)c(F)c(F)c(F)c4F)cc(C(=O)O)c(=O)n3cc2F)C1 (stereo not shown) [Example 172, hydrochloride salt] ): 0.79

So, C[C@H]1C[C@H](N)CN1c1nc2c(-c3ccc(F)cc3F)cc(C(=O)O)c(=O)n2cc1F [Example 171, hydrochloride] ? Its log10(MIC values) was -1.00

According to the records, this molecule CCc1cc(C(=O)O)c(=O)n2ccc(N3CCC(N)C3)cc12.Cl (stereo not shown) [Example 62] displays log10(MIC values) of 0.49

response.value for CN1CCN(c2nc3c(-c4ccc(F)cc4F)cc(C(=O)O)c(=O)n3cc2F)CC1 [Example 159] (field: log10(MIC values)) = -0.11

log10(MIC values) recorded for this molecule, CCc1cc(C(=O)O)c(=O)n2ccc(N3CCN(C)CC3)cc12.Cl [Example 65] , is 1.10

Entry under test: NC1CCN(c2nc3c(-c4ccc(F)cc4F)cc(C(=O)O)c(=O)n3cc2F)C1 (stereo not shown) [Example 161] . Its log10(MIC values) was -1.30

Kindly note the recorded log10(MIC values) for O=C(O)c1cc(C2CC2)c2nc(N3CCOCC3)c(F)cn2c1=O [Example 165] , which is 0.49

Lab note: measured log10(MIC values) of C[C@H](N)C(=O)N[C@@H](C)C(=O)N[C@H]1C[C@H](C)N(c2nc3c(-c4ccc(F)cc4F)cc(C(=O)O)c(=O)n3cc2F)C1 [Example 173, hydrochloride] was 1.40

Per the records, this molecule ( O=C(O)c1cc(C2CC2)c2nc(N3CCNCC3)c(F)cn2c1=O [Example 164] ) has log10(MIC values) equal to -1.30

So for CC(C)(C)OC(=O)NC1CCN(c2nc3c(-c4ccc(F)cc4F)cc(C(=O)O)c(=O)n3cc2F)C1 (stereo not shown) [Example 160] , the logged log10(MIC values) turned out to be 1.10

The values you see were collected from patent EP0527889B1.
